This collection of values is drawn from patent US10059668B2.

# TEST SYSTEM: purified N-terminal truncated human LSD1 enzyme (aa 151-852) (Homo sapiens (Human), UniProt O60341)
# ASSAY EXPLANATION: LSD1 fluorescence coupling enzymatic assay (horseradish peroxidase/Amplex Red)
# Assay type: biochemical
# STATED CONDITIONS: 50 nM LSD1, 30 min pre-incubation, 10 μM histone 3.3 peptide (aa 1-21), 10-point dose-response; read-out: IC50 (nM), Inhibition of LSD1 Activity
Below is a list of entries, each paired with its recorded IC50 value.
Your reply should be a number followed by the unit it is expressed in.

Some entries whose results are on file:
(Q) Return IC50 (reported value) for this compound: `CS(=O)(=O)NC(=O)c1ccc(CN2CCC(CN[C@@H]3C[C@H]3c3ccccc3)CC2)cc1`
(A) 27 nM

(Q) Return IC50 (reported value) for this compound: `CS(=O)(=O)NC(=O)Cc1ccc(CN2CCC(CN[C@@H]3C[C@H]3c3ccccc3)CC2)cc1`
(A) 44 nM

(Q) Return IC50 (reported value) for this compound: C(=C\c1ccc(CN2CCC(N[C@@H]3C[C@H]3c3ccccc3)CC2)cc1)/c1ccccc1 (relative stereo)
(A) 23 nM

(Q) Return IC50 (reported value) for this compound: CS(=O)(=O)NC(=O)/C=C/c1ccc(CN2CCC(N[C@@H]3C[C@H]3c3ccccc3)CC2)cc1 (relative stereo) [Example 2]
(A) 30 nM

---
(Q) Return IC50 (reported value) for this compound: CONC(=O)/C=C/c1ccc(CN2CCC(N[C@@H]3C[C@H]3c3ccccc3)CC2)cc1 (relative stereo)
(A) 15 nM

(Q) Return IC50 (reported value) for this compound: `O=C(/C=C/c1ccc(CN2CCC(CN[C@@H]3C[C@H]3c3ccccc3)CC2)cc1)NS(=O)(=O)c1ccccc1`
(A) 33 nM

(Q) Return IC50 (reported value) for this compound: `CS(=O)(=O)NC(=O)c1ccc(CN2CCC(N[C@@H]3C[C@H]3c3ccccc3)CC2)cc1`
(A) 3 nM

(Q) Return IC50 (reported value) for this compound: `CS(=O)(=O)NC(=O)Cc1ccc(CN2CCC(N[C@@H]3C[C@H]3c3ccccc3)CC2)cc1`
(A) 25 nM

(Q) Return IC50 (reported value) for this compound: C(=C\c1cccc(CN2CCC(N[C@@H]3C[C@H]3c3ccccc3)CC2)c1)/c1ccccc1 (relative stereo)
(A) 17 nM

(Q) Return IC50 (reported value) for this compound: CS(=O)(=O)NC(=O)/C=C/c1ccc(CN2CCC(N[C@@H]3C[C@H]3c3ccccc3)CC2)cc1 [Example 15]
(A) 10 nM

(Q) Return IC50 (reported value) for this compound: C(=C\c1nnn[nH]1)/c1cccc(CN2CCC(N[C@@H]3C[C@H]3c3ccccc3)CC2)c1 (relative stereo)
(A) 118 nM
